target: Cyclic AMP-responsive element-binding protein 1 (Homo sapiens) (UniProt P16220); test: Effect on transcriptional activity of CREB transfected in human Hep G2 cells after 1 hr by luciferase reporter gene assay relative to control; format: cell-based; conditions: HepG2
Sequence (P16220 whole entry): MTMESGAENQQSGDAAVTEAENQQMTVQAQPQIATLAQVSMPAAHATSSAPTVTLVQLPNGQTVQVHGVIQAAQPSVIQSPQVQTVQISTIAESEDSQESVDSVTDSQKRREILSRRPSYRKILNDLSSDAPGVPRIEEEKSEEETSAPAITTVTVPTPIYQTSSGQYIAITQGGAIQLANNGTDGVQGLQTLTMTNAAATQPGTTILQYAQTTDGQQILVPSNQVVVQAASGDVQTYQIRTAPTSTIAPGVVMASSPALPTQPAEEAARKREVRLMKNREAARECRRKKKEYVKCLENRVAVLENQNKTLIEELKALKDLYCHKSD
test-readout: fold change (FC)

CC(=O)Oc1c(O)cc2oc(-c3ccccc3)cc(=O)c2c1O    2.04
CCOc1c(O)cc2oc(-c3ccccc3)cc(=O)c2c1O    1.81
COc1c(O)cc2oc(-c3ccccc3)cc(=O)c2c1O    1.28
O=c1cc(-c2ccccc2)oc2cc(O)c(O)c(O)c12    1.35
O=c1cc(-c2ccccc2)oc2cc(O)c(OCc3ccccc3)c(O)c12    1.31
CCCOc1c(O)cc2oc(-c3ccccc3)cc(=O)c2c1O    1.59

Source: ChEMBL document CHEMBL1144159
